# targetUnderTest: Vasopressin V2 receptor (Rattus norvegicus)
# Sequence (Q00788 whole entry): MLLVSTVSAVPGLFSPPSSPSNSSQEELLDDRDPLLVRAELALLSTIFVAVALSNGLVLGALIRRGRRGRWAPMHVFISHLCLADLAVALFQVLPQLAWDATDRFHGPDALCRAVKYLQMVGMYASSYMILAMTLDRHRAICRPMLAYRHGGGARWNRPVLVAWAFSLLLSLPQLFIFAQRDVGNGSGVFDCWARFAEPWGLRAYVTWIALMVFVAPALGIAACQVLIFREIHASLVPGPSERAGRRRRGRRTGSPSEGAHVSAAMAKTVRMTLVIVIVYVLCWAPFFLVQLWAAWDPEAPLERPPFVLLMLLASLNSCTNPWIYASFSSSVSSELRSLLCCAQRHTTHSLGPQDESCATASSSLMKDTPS
assayMetric: IC50

CC1(C)[C@@H]2CC[C@@]1(CS(=O)(=O)N1CCC3(C=Cc4ccccc43)CC1)[C@@](O)(CN1C(=O)CCC1=O)C2: > 3 µM
CC(C(=O)N[C@H]1C[C@H]2CC[C@]1(CS(=O)(=O)N1CCC3(CCc4ccccc43)CC1)C2(C)C)c1cn(C)cn1 (some centres undefined): > 3 µM

In: // lookup IC50 for CC1(C)[C@@H]2CC[C@@]1(CS(=O)(=O)N1CCC3(C=Cc4ccccc43)CC1)C1(CNC(=O)O1)C2 (some centres undefined)
Out: > 10 µM

In: // lookup IC50 for CC1(C)[C@@H]2CC[C@@]1(CS(=O)(=O)N1CCC3(C=Cc4ccccc43)CC1)[C@@](O)(CCNC(=O)c1ccccn1)C2
Out: > 1 µM
